# TESTED TARGET: human PCaR (parathyroid Calcium receptor) (Homo sapiens, UniProt P41180)
# Sequence (P41180 20-1078): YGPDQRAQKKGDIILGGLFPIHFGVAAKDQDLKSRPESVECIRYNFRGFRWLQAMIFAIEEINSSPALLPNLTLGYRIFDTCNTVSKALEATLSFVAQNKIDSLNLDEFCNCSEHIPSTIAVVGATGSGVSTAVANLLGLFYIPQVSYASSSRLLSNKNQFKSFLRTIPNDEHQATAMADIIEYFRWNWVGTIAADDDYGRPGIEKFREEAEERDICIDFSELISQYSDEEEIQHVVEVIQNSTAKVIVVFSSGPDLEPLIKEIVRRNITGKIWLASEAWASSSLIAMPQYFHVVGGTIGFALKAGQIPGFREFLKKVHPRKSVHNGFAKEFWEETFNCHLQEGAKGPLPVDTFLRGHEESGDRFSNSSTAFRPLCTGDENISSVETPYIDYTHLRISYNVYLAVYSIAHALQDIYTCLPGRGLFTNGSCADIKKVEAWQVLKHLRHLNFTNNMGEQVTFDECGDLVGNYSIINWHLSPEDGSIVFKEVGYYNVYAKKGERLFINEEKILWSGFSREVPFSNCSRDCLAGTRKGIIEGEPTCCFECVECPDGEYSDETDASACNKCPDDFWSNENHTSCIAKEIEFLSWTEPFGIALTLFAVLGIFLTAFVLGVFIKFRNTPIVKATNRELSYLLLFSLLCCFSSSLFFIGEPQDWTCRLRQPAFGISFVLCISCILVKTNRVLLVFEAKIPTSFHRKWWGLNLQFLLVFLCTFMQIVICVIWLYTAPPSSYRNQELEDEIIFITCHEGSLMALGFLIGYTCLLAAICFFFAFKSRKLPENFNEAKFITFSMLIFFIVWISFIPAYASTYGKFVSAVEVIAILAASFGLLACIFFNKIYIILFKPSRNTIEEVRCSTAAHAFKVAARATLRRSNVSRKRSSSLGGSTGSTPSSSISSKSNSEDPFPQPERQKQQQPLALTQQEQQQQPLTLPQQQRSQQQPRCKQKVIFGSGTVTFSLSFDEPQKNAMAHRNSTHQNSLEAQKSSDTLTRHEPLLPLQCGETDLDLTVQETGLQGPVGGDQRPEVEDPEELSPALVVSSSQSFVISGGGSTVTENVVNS
# METHOD NOTES: Intracellular free calcium assay: inhibition of calcium transients stimulated by extracellular calcium (antagonism at PCaR)
# STUDY CONDITIONS: CCL39 fibroblasts stably transfected with human PCaR; Fluo-3 AM; stimulated with calcium (2.5 mM final)
pIC50: −log10 of the molar value.

MOLECULE | pIC50
C#CCOc1ccc2nc(-c3nc4ccc(OC)cc4[nH]3)nc(-c3ccc(C(C)C)cc3)c2c1 [Example 15] | 9.02
C#CCOc1ccc2nc(-c3nc4ccc(F)cc4[nH]3)nc(-c3ccc(C(C)C)cc3)c2c1 [Example 20] | 8.80
C#CCOc1ccc2nc(-c3nc4cc(F)c(Cl)cc4[nH]3)nc(-c3ccc(C(C)C)cc3)c2c1 [Example 21] | 8.85
C#CCOc1ccc2nc(-c3nc4ccc(C(=O)OCC)cc4n3C)nc(-c3ccc(C(C)C)cc3)c2c1 [Example 36] | 9.19
